The origin of these recorded values is paper doi:10.1101/2021.11.19.469356.

# assay-system: T1, MED25 ACID (residues Leu389-Asn543), recombinant (human, UniProt Q71SY5 389-543)
# T1 sequence: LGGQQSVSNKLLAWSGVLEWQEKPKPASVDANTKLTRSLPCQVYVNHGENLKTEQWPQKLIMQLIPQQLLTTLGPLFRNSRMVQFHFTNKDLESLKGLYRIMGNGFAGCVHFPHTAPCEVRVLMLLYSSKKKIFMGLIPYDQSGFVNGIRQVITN
# protocol-description: NMR titration
Where no end group is shown, it is not given here.
reported-endpoint: pKd
# pKd is unitless: minus log10 of the molar concentration; print number only

Specify reported pKd for the binder shown: Ac-SDSTMTNYMNQLSELLGFDLNP [N-acetylated NS1 α3 peptide (RSV NS1 residues Ser118-Pro139)]
4.77
